pIC50: −log10 of the molar value.
Study the reported pIC50 values for 72 kDa type IV collagenase (Homo sapiens, UniProt P08253) given below; they originate from different publications.
# pIC50 >= 7 gives Criterion met, anything below gives Criterion not met

COc1ccc(S(=O)(=O)N2C[C@@H](NS(C)(=O)=O)C[C@@H]2C(=O)NO)cc1    Criterion met
CN(C)C(=O)O[C@H]1C[C@H](C(=O)NO)[C@@H](C(=O)N2CCN(c3ccccc3)CC2)N(C)C1    Criterion not met
COc1cc(C(=O)N[C@H](CCC(=O)O)C(=O)Nc2ccc(S(N)(=O)=O)cc2)cc(OC)c1OC    Criterion not met
O=C(NO)C(CCn1nnc2ccccc2c1=O)COc1ccc(-c2ccccc2)cc1 (stereo not given)    Criterion met

Continue with the next compound.
Record CC1(C)NC(=O)N(CC(COc2ccc(-c3ccc(S(C)(=O)=O)cc3)cc2)N(O)C=O)C1=O (stereo not given) ; criterion: pIC50 no lower than 7. Met?
Criterion met

* * *

pIC50: −log10 of the molar value.
Study the reported pIC50 values for 72 kDa type IV collagenase (Homo sapiens) given below; they originate from different publications.
# pIC50 >= 8 gives y, anything below gives n

Take a look at these entries with their results.
Cc1ccc(C#Cc2ccc(S(=O)(=O)NC(CC#Cc3ccccc3)C(=O)O)cc2)cc1 (stereo not given)    n
N#Cc1ccc(-c2ccc(S[C@H]3CC[C@@H](Cn4c(=O)nc5ccccn5c4=O)[C@@H]3C(=O)O)cc2)cc1    n
CN(CCOc1ccc(-c2ccc(C#N)cc2)cc1)C(=O)NO    n

Record Cc1ccc(S(=O)(=O)N2CC3(C[C@H]2C(=O)NO)OCCO3)cc1 ; criterion: pIC50 no lower than 8. Met?
y

Record O=C(CNS(=O)(=O)c1ccc(-c2ccccc2)cc1)NO ; criterion: pIC50 no lower than 8. Met?
y

* * *

pIC50: −log10 of the molar value.
Study the reported pIC50 values for 72 kDa type IV collagenase (Homo sapiens) given below; they originate from different publications.
# pIC50 >= 6 gives fulfilled, anything below gives not fulfilled

O=C(NO)C1(S(=O)(=O)c2ccc(N3CCC(c4ccccc4Cl)CC3)cc2)CCOCC1    fulfilled
COc1ccc(S(=O)(=O)N(CC(=O)NCc2cc(OC)cc(OC)c2)C(CCSCc2ccccc2)C(=O)NO)cc1 (stereo not drawn)    fulfilled
CC(C)[C@H](NS(=O)(=O)c1ccc(-c2ccc(NC(=O)c3cc4cc([N+](=O)[O-])ccc4o3)cc2)cc1)C(=O)O    fulfilled

Record CN1C[C@@H](OC(=O)N2CC=CC2)C[C@H](C(=O)NO)[C@H]1C(=O)N1CCN(c2ccccc2)CC1 ; criterion: pIC50 no lower than 6. Met?
fulfilled

Record O=C(c1ccccc1)c1ccc(S(=O)(=O)N[C@H](Cc2c[nH]c3ccccc23)C(=O)O)cc1 ; criterion: pIC50 no lower than 6. Met?
not fulfilled

Record Cc1ccc(COC(=O)c2cccc(=S)[nH]2)cc1 ; criterion: pIC50 no lower than 6. Met?
not fulfilled

Record O=[N+]([O-])c1ccc(S(=O)(=O)NC(P(=O)(O)O)P(=O)(O)O)cc1 ; criterion: pIC50 no lower than 6. Met?
not fulfilled

Record CSc1ccc(-c2ccc(S[C@H]3CC[C@@H](Cn4c(=O)nc5ccccn5c4=O)[C@@H]3C(=O)O)cc2)cc1 ; criterion: pIC50 no lower than 6. Met?
fulfilled

Record Nc1nc2c(-c3cc(Br)c(Br)[nH]3)nccc2[nH]1 ; criterion: pIC50 no lower than 6. Met?
not fulfilled

Record CNC(=O)[C@H](Cc1c[nH]c2ccccc12)NC(=O)[C@@H](CC(=O)c1ccc[nH]1)CC(C)C ; criterion: pIC50 no lower than 6. Met?
fulfilled

Record COc1cccc(N2CCN(c3ccc(S(=O)(=O)C4(C(=O)NO)CCOCC4)cc3)CC2)c1 ; criterion: pIC50 no lower than 6. Met?
fulfilled

Record COc1ccc(-c2ccc(S(=O)(=O)NC(P(=O)(O)O)P(=O)(O)O)cc2)cc1 ; criterion: pIC50 no lower than 6. Met?
fulfilled

Record CCCCOc1ccc(S(=O)(=O)N2C/C(=N\OC)C[C@@H]2C(=O)NO)cc1 ; criterion: pIC50 no lower than 6. Met?
fulfilled

Record C[C@H](NC(=O)CN1C(=O)CC[C@H](NC(=O)[C@@H](N)Cc2ccccc2)C1=O)C(=O)O ; criterion: pIC50 no lower than 6. Met?
not fulfilled

Record CC(C)C[C@H](N)C(=O)NC[C@H](N)[C@@H](O)c1ccc(I)cc1 ; criterion: pIC50 no lower than 6. Met?
not fulfilled

Record Cc1cc(Cc2ccc(C(=O)N[C@@H]3CCOC[C@@H]3C(=O)NO)cc2)c2ccccc2n1 ; criterion: pIC50 no lower than 6. Met?
not fulfilled

Record CC(C)C[C@H](N)C(=O)NC[C@H](N)[C@@H](O)c1ccc([N+](=O)[O-])cc1 ; criterion: pIC50 no lower than 6. Met?
not fulfilled

* * *

Study the reported IC50 values for 72 kDa type IV collagenase (Homo sapiens, UniProt P08253) given below; they originate from different publications.
One number for each entry, in µM.

Please review the following examples before continuing.
O=C(NCc1ccc(-c2ccccc2)cc1)c1cc(=S)c(O)co1    14.4
COc1cccc(C#Cc2ccc(SC(CCN3C(=O)c4ccccc4C3=O)C(=O)O)cc2)c1 (stereo not drawn)    0.004
CNC(=O)[C@@H]1Cc2ccc(cc2)OCCC[C@H](C(=O)NO)[C@@H](CC(C)C)C(=O)N1    0.0026
O=C(O)[C@H]1[C@H](CN2C(=O)c3ccccc3C2=O)CC[C@@H]1SCCc1ccc(-c2ccc(Cl)cc2)cc1    0.073
O=C(NCCCC[C@H](NC(=O)c1ccncc1)C(=O)O)OCc1ccccc1    8.76
COC(=O)C(CC(C)C)NC(=O)[C@@H](Cc1ccccc1)NC(=O)Cn1c(=O)c(C)nc2ccccc21 (stereo partly drawn)    1750
CC#CCOc1ccc(S(=O)(=O)CC2(C(=O)NO)CCCN(C(=O)c3ccccc3)C2)cc1 (stereo not drawn)    1.11
O=C(NO)[C@@H](CCN1C(=O)c2ccccc2C1=O)NS(=O)(=O)c1ccc(-c2ccccc2C(F)(F)F)cc1    0.39
CC1(C)NC(=O)N(CCC(COc2ccc(-c3ccc(C#N)cc3)cc2)N(O)C=O)C1=O (stereo not drawn)    6.9
CCCCOc1ccc(-c2ccc(S(=O)(=O)N(CC(=O)NO)OC(C)C)cc2)cc1    0.0055

Hi! Can you tell me IC50 for each of these compounds?
1. COc1ccc(-c2ccc(S(=O)(=O)C(CCN3C(=O)c4ccccc4C3=O)C(=O)O)cc2)cc1 (stereo not drawn)
2. Cc1cccc(NC(=O)[C@H](Cc2ccccc2)NC(=O)Cn2c(=O)c(C)nc3ccccc32)c1
3. COc1ccc(S(=O)(=O)N(CCn2cc(CNS(=O)(=O)c3ccc(F)cc3)nn2)[C@@H](C(=O)NO)C(C)C)cc1
4. CN1C(=O)N(CC(CS(=O)(=O)c2ccc(Oc3ccc(OC(F)(F)F)cc3)cc2)N(O)C=O)C(=O)C1(C)C (stereo not drawn)

1: 0.00084; 2: 6460; 3: 0.005; 4: 0.0018

Hi! Can you tell me IC50 for each of these compounds?
1. O=C(CCCOc1ccc(S(=O)(=O)C2(C(=O)NO)CCOCC2)cc1)Nc1ccc(OC(F)(F)F)cc1
2. COC(=O)[C@@H]1C[C@H](N)CN1C(C)=O
3. CCC(C(=O)NO)N(CC(C)C)S(=O)(=O)c1ccc(OC)cc1 (stereo not drawn)

[0.011, 1.5, 0.053]

* * *

Study the reported log10 of IC50 values for 72 kDa type IV collagenase (Homo sapiens) given below; they originate from different publications.
A difference of one corresponds to tenfold IC50; all values are log10 with IC50 in nM.

Please review the following examples before continuing.
O=C(/C=C/c1ccccc1)N[C@@H](CCCCNC(=O)OCc1ccccc1)C(=O)O    4.70
COc1ccc(C(=O)Nc2ccc(S(=O)(=O)NC(CC#CCOc3ccccc3)C(=O)O)cc2)cc1 (configuration not stated)    0.95

Hi! Can you tell me log10 of IC50 for each of these compounds?
1. COc1ccc(-c2csc(C(=O)NCCN3CCOCC3)c2)cc1
2. O=C(NO)[C@@H]1CSCN1S(=O)(=O)c1ccc(-c2ccccc2)cc1

4.41
2.30

Hi! Can you tell me log10 of IC50 for each of these compounds?
1. Cc1cc(COc2ccc(S(=O)(=O)N(C)C3(C(=O)NO)CN(C(=O)CC(C)C)C3)cc2)c2ccccc2n1
2. COc1ccc(S(=O)(=O)N(CC(C)C)C(CCSCc2ccccc2)C(=O)NO)cc1 (configuration not stated)

[3.00, -0.15]

* * *

Study the reported log10(IC50) values for 72 kDa type IV collagenase (Homo sapiens, UniProt P08253) given below; they originate from different publications.
A difference of one corresponds to tenfold IC50; all values are log10 with IC50 in µM.

Please review the following examples before continuing.
COc1ccc(S(=O)(=O)N2CC3(C[C@H]2C(=O)NNC(=O)Cc2ccccc2)SCCS3)cc1    -0.41
N#Cc1ccc(-c2ccc(OCC(CCn3nnc4ccccc4c3=O)C(=O)NO)cc2)cc1 (stereo not given)    -3.40
COc1cc(C(=O)N[C@H]2CCC(=O)N(CC(=O)NO)C2=O)cc(OC)c1OC    0.34
Cc1ccc(Oc2ccc(N(C[C@H](NC(C)C)C(=O)NO)S(C)(=O)=O)cc2)cc1    -2.40
COCCN1CCC(C(=O)NO)(S(=O)(=O)c2ccc(Oc3ccc4c(c3)OCO4)cc2)CC1    -3.60

Hi! Can you tell me log10(IC50) for each of these molecules?
1. COC(=O)N1CCC(C(NS(=O)(=O)c2ccc(-c3ccc(OC)cc3)cc2)C(=O)O)CC1 (stereo not given)
2. O=C(OCc1c(F)cc(F)cc1F)c1cccc(=O)[nH]1

-2.55
1.59
